Hello, the source for this data is patent US9283280B2, in case you need it.

# methodDescription: Intranasal triptans with alkylsaccharide in rats, plasma levels by HPLC
# Type: in vivo
# recordedConditions: Rizatriptan […] intranasal; alkylsaccharide 0.02%
measuredEndpoint: Tmax

Recorded result, CCCCCCCCCCO[C@@H]1O[C@H](CO)[C@@H](O[C@H]2O[C@H](CO)[C@@H](O)[C@H](O)[C@H]2O)[C@H](O)[C@H]1O [decyl maltoside, decyl-β-D-maltoside] , Tmax: ~1 to 2 h

Recorded result, CCCCCCCCCCCCCO[C@@H]1O[C@H](CO)[C@@H](O[C@H]2O[C@H](CO)[C@@H](O)[C@H](O)[C@H]2O)[C@H](O)[C@H]1O [tridecyl maltoside, tridecyl-β-D-maltoside] , Tmax: ~1 h

Recorded result, CCCCCCCCCCCCCCO[C@@H]1O[C@H](CO)[C@@H](O[C@H]2O[C@H](CO)[C@@H](O)[C@H](O)[C@H]2O)[C@H](O)[C@H]1O [tetradecyl maltoside] , Tmax: ~1 h

Recorded result, CCCCCCCCO[C@@H]1O[C@H](CO)[C@@H](O[C@H]2O[C@H](CO)[C@@H](O)[C@H](O)[C@H]2O)[C@H](O)[C@H]1O [octyl maltoside, Octyl-β-D-maltoside] , Tmax: ~1 to 2 h

Recorded result, CCCCCCCCCCCCO[C@@H]1O[C@H](CO)[C@@H](O[C@H]2O[C@H](CO)[C@@H](O)[C@H](O)[C@H]2O)[C@H](O)[C@H]1O [dodecyl maltoside] , Tmax: ~1 to 2 h

====

# methodDescription: Intranasal triptans with alkylsaccharide in rats, plasma levels by HPLC
# Assay type: in vivo
# recordedConditions: Sumatriptan 6.2 mg/kg intranasal; alkylsaccharide 0.1%
measuredEndpoint: Ratio Cmax(alkylsacch)/Cmax(No alkylsacch)

Please review the following examples before continuing.
| compound | reportedValue |
| --- | --- |
| CCCCCCCCCCCCCO[C@@H]1O[C@H](CO)[C@@H](O[C@H]2O[C@H](CO)[C@@H](O)[C@H](O)[C@H]2O)[C@H](O)[C@H]1O [tridecyl maltoside, tridecyl-β-D-maltoside] | ≧1.5 |
| CCCCCCCCCCO[C@@H]1O[C@H](CO)[C@@H](O[C@H]2O[C@H](CO)[C@@H](O)[C@H](O)[C@H]2O)[C@H](O)[C@H]1O [decyl maltoside, decyl-β-D-maltoside] | ≧1.5 |
| CCCCCCCCCCCCO[C@@H]1O[C@H](CO)[C@@H](O[C@H]2O[C@H](CO)[C@@H](O)[C@H](O)[C@H]2O)[C@H](O)[C@H]1O [dodecyl maltoside] | ≧1.5 |
| CCCCCCCCO[C@@H]1O[C@H](CO)[C@@H](O[C@H]2O[C@H](CO)[C@@H](O)[C@H](O)[C@H]2O)[C@H](O)[C@H]1O [octyl maltoside, Octyl-β-D-maltoside] | ≦1.5 |

Recorded result, CCCCCCCCCCCCCCO[C@@H]1O[C@H](CO)[C@@H](O[C@H]2O[C@H](CO)[C@@H](O)[C@H](O)[C@H]2O)[C@H](O)[C@H]1O [tetradecyl maltoside] , Ratio Cmax(alkylsacch)/Cmax(No alkylsacch): ≧1.5

====

# methodDescription: Intranasal triptans with alkylsaccharide in rats, plasma levels by HPLC;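 also: rats in groups of eight given 20 µL into one nostril, dose expressed as triptan free base, Cmax and Tmax read from plasma concentration–time curves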
# Format: in vivo
# recordedConditions: Sumatriptan 6.2 mg/kg intranasal; alkylsaccharide 0.5%
measuredEndpoint: Ratio Cmax(alkylsacch)/Cmax(No alkylsacch)

| compound | reportedValue |
| --- | --- |
| CCCCCCCCCCCCCO[C@@H]1O[C@H](CO)[C@@H](O[C@H]2O[C@H](CO)[C@@H](O)[C@H](O)[C@H]2O)[C@H](O)[C@H]1O [tridecyl maltoside, tridecyl-β-D-maltoside] | ≧1.5 |
| CCCCCCCCCCO[C@@H]1O[C@H](CO)[C@@H](O[C@H]2O[C@H](CO)[C@@H](O)[C@H](O)[C@H]2O)[C@H](O)[C@H]1O [decyl maltoside, decyl-β-D-maltoside] | ≧1.5 |
| CCCCCCCCO[C@@H]1O[C@H](CO)[C@@H](O[C@H]2O[C@H](CO)[C@@H](O)[C@H](O)[C@H]2O)[C@H](O)[C@H]1O [octyl maltoside, Octyl-β-D-maltoside] | ≦1.5 |
| CCCCCCCCCCCCO[C@@H]1O[C@H](CO)[C@@H](O[C@H]2O[C@H](CO)[C@@H](O)[C@H](O)[C@H]2O)[C@H](O)[C@H]1O [dodecyl maltoside] | ≧1.5 |

Let's switch to this compound now.
Recorded result, CCCCCCCCCCCCCCO[C@@H]1O[C@H](CO)[C@@H](O[C@H]2O[C@H](CO)[C@@H](O)[C@H](O)[C@H]2O)[C@H](O)[C@H]1O [tetradecyl maltoside] , Ratio Cmax(alkylsacch)/Cmax(No alkylsacch): ≧1.5
